# Tested on: OVCAR-5 ovarian
# ASSAY_COMMENT: NCI tumour cell line growth inhibition, 48 h
MEASURED_ENDPOINT: GI50

Find the measured GI50: item O=C1CCC(N2C(=O)c3ccccc3C2=O)C(=O)N1CO (centres undefined) , target or system OVCAR-5 ovarian. > 100 µM

State its GI50 on OVCAR-5 ovarian: CCOC1Oc2ccc(C)cc2C(=O)/C1=C\Nc1ccc(C(N)=O)cc1 (centres undefined) 22 µM

Which measured GI50 belongs to O=S(=O)(NC1=NCCN1C(=S)SN1CCn2c1nsc2=S)c1cccc(Cl)c1 , tested on OVCAR-5 ovarian? 19.7 µM

// map COC(=O)Nc1nc2ccc(Oc3ccc(NC(=O)Nc4cc(C(F)(F)F)ccc4F)cc3)cc2s1 to recorded GI50 (system: OVCAR-5 ovarian) > 25 µM

###

Provide the reported TGI of each item.
# Test system: RPMI-8226 leukemia
# ASSAY_COMMENT: NCI tumour cell line growth inhibition, 48 h

Which value of TGI has been reported for Clc1ccccc1-c1nc2ccc(C34CC5CC(CC(C5)C3)C4)cc2[nH]1 in the records? > 100 µM

Quick one: TGI of O=c1cc(N2CCNCC2)nc2ccccn12 ? > 100 µM

Entry under review: CCCC/C=C/C/C=C/CCCCCCCCC(=O)OCC1CCCN2CCCCC12 (stereo not drawn) . Reported TGI? > 100 µM

Param item = CC(SC(=S)N1CCOCC1)c1cc2oc(=O)n(C)c2cc1Cl (stereo not drawn) ; retrieve measured TGI. > 100 µM

# lookup: TGI of Nc1cccnc1NCC1(CO)CCCC1 > 100 µM

# get_value(readout='TGI', item= CN(C)c1ccc(/C=C2/NC(=S)NC2=O)cc1 ) > 100 µM

Endpoint output: TGI of Cc1ccc(C(=O)NC(C)C)cc1-c1ccc(C(=O)NCC2CC2)cc1 . Value? > 25 µM

# lookup: TGI of CCOC(=O)/C(C#N)=C/c1[nH]c(C(=O)OCc2ccccc2)c(C)c1C > 100 µM

Would you mind telling me what TGI value was observed for CCN(CCO)C(=O)C1(c2ccccc2)CCCCC1 ? > 10 µM

Any idea what TGI was measured for O=c1[nH]nc(-c2ccccc2)n1-c1ccncc1 ? > 100 µM

// lookup TGI for Cc1ccc(NC(=O)CC(=O)n2nc(C)c(N=Nc3ccccc3C(=O)O)c2C)cc1 > 100 µM

I am curious: what TGI value has been reported for NC12CC3CC(C1)CC(C(=O)O)(C3)C2 ? > 100 µM

Fill blank: measured TGI of the compound c1ccc(-c2cn3c(nc4ccccc43)c(-c3ccccc3)n2)cc1 is ____. > 100 µM

###

# System: UACC-257 melanoma
# ASSAY_COMMENT: NCI tumour cell line growth inhibition, 48 h
Provide the reported TGI of each item.
Number only, in µM; omit the unit.

I'd like to know its TGI. The compound in question is CC/C=C\C[C@H](F)C/C=C1/C(=O)C=C[C@@H]1C/C=C\CCCC(=O)O 11.4

Quick one: TGI of Cc1ccc(C(=O)N(CCCN)C(c2oc3cc(Cl)ccc3c(=O)c2Cc2ccccc2)C(C)C)cc1 (stereo not given) ? 1.97

###

Answer each item with its documented TGI.
# Test system: K-562 leukemia
# ASSAY_COMMENT: NCI tumour cell line growth inhibition, 48 h

Given the entry CCOCC(=O)N[C@H]1CCc2cc(OC)c(OC)c(OC)c2-c2ccc(OC)c(=O)cc21 , what TGI was observed with K-562 leukemia? > 100 µM

What measured TGI is associated with Cc1cccc(C(C)C)c1NC(=O)/C(Cc1c([N+](=O)[O-])cccc1[N+](=O)[O-])=N/NC(=O)CC#N on K-562 leukemia? > 100 µM

# value lookup — system K-562 leukemia, readout TGI, item CCCCCCCCn1ccc2cc(NC(=O)Cn3cc(CN4CCCC4)nn3)ccc21 3.9 µM
